System: Mycobacterium tuberculosis
protocol: Antitubercular activity against Mycobacterium tuberculosis H37Rv ATCC 27294 cultured in 7H12 media assessed as reduction in bacterial growth incubated for 7 days by resazurin dye fluorescence based assay
Type: functional
test settings: H37Rv ATCC 27294, 168 h, time 7 day
readout type: MIC (µM)
# unit: µM | format: bare number

Challenge: Any idea what MIC came out for O=[N+]([O-])c1cn2c(n1)OC[C@@H](OCc1ccc(OC(F)(F)F)cc1)C2 [PRETOMANID] on Mycobacterium tuberculosis?
Response given: 0.08

Challenge: Any idea what MIC came out for `COc1ccc(CNC(=O)c2sc3c([N+](=O)[O-])cc(C(F)(F)F)cc3[n+]2[O-])cc1` on Mycobacterium tuberculosis?
Response given: 0.01

Challenge: Any idea what MIC came out for `C[C@H]1COC2(CCN(c3ccc([N+](=O)[O-])cc3C#N)CC2)O1` on Mycobacterium tuberculosis?
Response given: 2.4

Challenge: Any idea what MIC came out for `O=C(NCc1ccc(N2CCC(c3ccc(OC(F)(F)F)cc3)CC2)cc1)c1nc2cc(C(F)(F)F)cc([N+](=O)[O-])c2s1` on Mycobacterium tuberculosis?
Response given: 0.24
